# Tested on: CDK6
# Set-up: species or system human, MV4-11 + K-562 + COLO205 + SK-N-BE2 + OVCAR-8
# EXPERIMENTAL SETUP: read-out: apparent Kd; compound concentrations:100 nM and 1000 nM (sheet 'Samples'); n = 1
Entries and their measured potency estimated from few doses follow.
Use µM as the unit, but write only the number.

MOLECULE: COc1cc(C)c(N(C)C(=O)CN(C)C)cc1Nc1nc(Nc2cccc(F)c2C(N)=O)c2cc[nH]c2n1
potency estimated from few doses (µM): 1.85
--
MOLECULE: COc1cccc(F)c1C(=O)c1cnc(NC2CCN(S(C)(=O)=O)CC2)nc1N
potency estimated from few doses (µM): 1.75
--
MOLECULE: COc1ccc(F)cc1C(=O)c1cnc(NC2CCN(S(C)(=O)=O)CC2)nc1N
potency estimated from few doses (µM): 1.68
--
MOLECULE: O=C(Nc1n[nH]c2nc(-c3cccc(O)c3)ccc12)C1CC1
potency estimated from few doses (µM): 1.88
--
MOLECULE: CC(=O)c1c(C)c2cnc(Nc3ccc(N4CCNCC4)cn3)nc2n(C2CCCC2)c1=O
potency estimated from few doses (µM): 0.0823
--
MOLECULE: CN1CCC(C(=O)Nc2n[nH]c3nc(-c4ccc(O)cc4)c(Br)cc23)CC1.O=C(O)/C=C\C(=O)O
potency estimated from few doses (µM): 0.786
--
MOLECULE: CN1CCC(C(=O)Nc2n[nH]c3nc(-c4ccc(O)cc4)c(Br)cc23)CC1
potency estimated from few doses (µM): 1.48
--
MOLECULE: COc1cccc(C2=C(Nc3cccc(C(=O)O)c3)C(=O)NC2=O)c1
potency estimated from few doses (µM): 2.18

Q: Fill in: potency estimated from few doses of O=c1cc(N2CCOCC2)nc2n(Cc3cccc(F)c3)ccn12 [GSK2297430A] is ___
Ans: 2

Q: Param item = CC(C(=O)NC1CCN(c2ccnc(Nc3ccc(F)cc3)n2)C1)c1ccc(Cl)cc1 (centres unmarked) [GSK1379713A] ; retrieve measured potency estimated from few doses.
Ans: 2.08

Q: What value of potency estimated from few doses has been reported for the following molecule? Nc1nc(-c2ccc3c(N)n[nH]c3c2)cc(N2CCCC(NC(=O)c3ccccc3)C2)n1 (centres unmarked) [GSK2286775B]
Ans: 1.51

Q: Fill in: potency estimated from few doses of Cc1ccccc1-c1cc(-c2c[nH]nc2-c2ccccn2)ccn1 [GW680061X] is ___
Ans: 1.96

Q: Would you mind telling me what potency estimated from few doses value was observed for CN(C)CC(O)COc1ccc(Nc2nccc(-c3cnn4nc(N5CCOCC5)ccc34)n2)cc1 (centres unmarked) [GW767488X] ?
Ans: 1.05
